Measured Biochem EGFR % Inhibition (P.167), listed per entry for reference.
- SYSTEM: EGFR (Homo sapiens, UniProt P00533)
- Construct: endogenous in cells; host or cells: A431 cells (lysate, captured with SUMO1 anti-EGFR antibody)
- Sequence (P00533 25-1210): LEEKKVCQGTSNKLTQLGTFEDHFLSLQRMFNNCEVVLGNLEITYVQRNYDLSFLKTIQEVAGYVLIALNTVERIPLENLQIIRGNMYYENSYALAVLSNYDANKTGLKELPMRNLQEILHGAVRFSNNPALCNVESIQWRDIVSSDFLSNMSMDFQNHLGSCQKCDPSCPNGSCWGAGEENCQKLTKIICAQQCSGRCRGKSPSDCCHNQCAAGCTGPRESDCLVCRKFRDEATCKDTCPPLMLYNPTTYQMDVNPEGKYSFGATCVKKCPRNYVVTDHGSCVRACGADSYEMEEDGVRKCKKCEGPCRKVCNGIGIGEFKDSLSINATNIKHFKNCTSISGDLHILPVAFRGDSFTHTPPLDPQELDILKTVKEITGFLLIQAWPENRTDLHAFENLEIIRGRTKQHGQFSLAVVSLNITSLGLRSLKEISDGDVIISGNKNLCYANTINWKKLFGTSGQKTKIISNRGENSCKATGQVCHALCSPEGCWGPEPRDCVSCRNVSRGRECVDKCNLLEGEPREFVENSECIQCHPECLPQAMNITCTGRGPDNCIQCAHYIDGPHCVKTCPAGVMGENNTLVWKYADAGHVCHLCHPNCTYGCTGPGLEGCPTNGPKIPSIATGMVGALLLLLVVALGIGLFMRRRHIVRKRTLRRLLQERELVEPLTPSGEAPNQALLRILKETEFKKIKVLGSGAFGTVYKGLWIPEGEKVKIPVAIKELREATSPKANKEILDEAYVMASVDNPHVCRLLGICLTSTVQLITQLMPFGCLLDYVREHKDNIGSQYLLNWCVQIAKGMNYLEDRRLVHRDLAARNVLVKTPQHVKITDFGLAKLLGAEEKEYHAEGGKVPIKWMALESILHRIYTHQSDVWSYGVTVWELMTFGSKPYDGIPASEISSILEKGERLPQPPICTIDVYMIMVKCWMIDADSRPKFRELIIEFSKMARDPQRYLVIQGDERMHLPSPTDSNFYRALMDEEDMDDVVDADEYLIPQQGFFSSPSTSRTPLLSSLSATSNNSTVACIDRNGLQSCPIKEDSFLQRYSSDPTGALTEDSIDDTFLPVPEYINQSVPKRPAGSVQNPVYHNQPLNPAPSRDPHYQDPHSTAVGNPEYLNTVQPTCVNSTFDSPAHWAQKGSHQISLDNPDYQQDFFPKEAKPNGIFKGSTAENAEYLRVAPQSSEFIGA
- TEST NAME: Biochemical EGFR Assay
- Parameters: concentration or dose not given beside the values
Remember to put the unit after the number in your answer.

Observe how each entry below is paired with its result.
>>> result("Cc1c(Br)cc(Br)c2c1C(=Cc1cc3c(cc1Cl)OCO3)C(=O)N2")
"−35.8%"
>>> result("Cc1c(Br)cc(Br)c2c1C(=Cc1ccco1)C(=O)N2")
"−5.7%"
>>> result("COC1CC(C=C2C(=O)Nc3c(Br)cc(Br)c(C)c32)C(OC)O1 (stereo not shown)")
"1.7%"
>>> result("O=C1Nc2ccc(CCCl)cc2C1=Cc1ccc(Cl)cc1")
"−4.5%"
>>> result("CNS(=O)(=O)c1ccc2c(c1)C(=Cc1ccc(O)c(Br)c1)C(=O)N2")
"21.0%"

Now look at this entry.
The value of Biochem EGFR % Inhibition (P.167) measured for the molecule "O=C1Nc2ccc(CCCl)cc2C1=Cc1c(F)cccc1F" turned out to be 1.6%

====

Recorded Biochem EGFR % Inhibition (P.167) for the following compounds
- SYSTEM: EGFR (Homo sapiens, UniProt P00533)
- Construct: endogenous in cells; host or cells: A431 cells (lysate, captured with SUMO1 anti-EGFR antibody)
- TEST NAME: Biochemical EGFR Assay
- Set-up: concentration or dose not given beside the values
- PARTICULARS: protocol P.167
Please respond with the number in % and leave the unit unwritten.

>>> numeric_result("O=C1Nc2ccc(CCCl)cc2C1=Cc1cc(O)c(O)c(O)c1 [10739/G07]")
10.0
>>> numeric_result("O=C1Nc2ccc(I)cc2C1=Cc1cccc(Oc2cccc(C(F)(F)F)c2)c1 [10737/B11]")
"−9.9"

// Biochem EGFR % Inhibition (P.167) value for CCCCOc1ccc(C=C2C(=O)Nc3ccc(S(=O)(=O)N4CCOCC4)cc32)cc1 [10740/F11] : 5.4

// O=C1Nc2c(Br)cc(Br)cc2C1=Cc1ccc(Oc2ccccc2)cc1 [10737/A09] : Biochem EGFR % Inhibition (P.167) value = 36.0

Entry O=C1Nc2ccc(S(=O)(=O)N3CCOCC3)cc2C1=Cc1cccc(OCc2ccccc2)c1 [10739/F03] ; Biochem EGFR % Inhibition (P.167) = −10.8

====

- SYSTEM: Met receptor (EGFR/Met chimeric cells, EMR) (Homo sapiens)
- Construct: expressed in transfected cells; the other entry of the earlier key: EGFR (P00533, Epidermal growth factor receptor)
- Sequence (P08581 with tags, fused parts or gaps): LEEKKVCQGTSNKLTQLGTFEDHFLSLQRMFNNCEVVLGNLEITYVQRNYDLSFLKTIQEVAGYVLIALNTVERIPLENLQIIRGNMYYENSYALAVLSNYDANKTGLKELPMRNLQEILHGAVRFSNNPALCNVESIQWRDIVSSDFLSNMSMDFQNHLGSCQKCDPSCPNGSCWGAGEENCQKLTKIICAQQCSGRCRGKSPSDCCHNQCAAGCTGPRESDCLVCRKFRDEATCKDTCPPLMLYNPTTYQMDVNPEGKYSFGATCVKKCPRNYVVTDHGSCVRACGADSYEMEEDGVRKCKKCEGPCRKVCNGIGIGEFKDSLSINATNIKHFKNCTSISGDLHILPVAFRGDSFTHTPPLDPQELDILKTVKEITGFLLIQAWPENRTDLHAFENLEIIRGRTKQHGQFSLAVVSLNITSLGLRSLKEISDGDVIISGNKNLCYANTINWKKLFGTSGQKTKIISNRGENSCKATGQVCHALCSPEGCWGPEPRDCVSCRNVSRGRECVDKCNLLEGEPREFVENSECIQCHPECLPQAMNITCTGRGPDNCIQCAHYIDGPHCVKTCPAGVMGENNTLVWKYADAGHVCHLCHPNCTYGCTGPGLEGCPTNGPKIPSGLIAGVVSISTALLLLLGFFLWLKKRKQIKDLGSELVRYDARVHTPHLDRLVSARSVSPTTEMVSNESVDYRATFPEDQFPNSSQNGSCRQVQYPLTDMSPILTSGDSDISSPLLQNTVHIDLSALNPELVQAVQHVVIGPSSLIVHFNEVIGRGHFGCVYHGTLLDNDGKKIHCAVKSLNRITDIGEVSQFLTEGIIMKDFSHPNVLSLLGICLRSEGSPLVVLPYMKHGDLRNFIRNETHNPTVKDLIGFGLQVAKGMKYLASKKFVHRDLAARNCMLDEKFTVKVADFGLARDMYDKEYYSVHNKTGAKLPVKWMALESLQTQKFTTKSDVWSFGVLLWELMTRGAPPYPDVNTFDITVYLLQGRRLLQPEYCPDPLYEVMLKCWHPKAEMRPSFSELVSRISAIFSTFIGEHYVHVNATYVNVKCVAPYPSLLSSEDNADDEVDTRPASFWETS
- TEST NAME: Met Autophosphorylation Assay
- Assay type: biochemical
Collected Met Kinase % Inhibition (P.130) values appear next to each entry.
Please reply with the bare figure in % and do not write the unit itself.

Consider the worked cases shown below.
>>> numeric_result("CCOc1ccccc1C=C1C(=O)Nc2c(Br)cc(Br)c(C)c21")
44.5
>>> numeric_result("Cc1c(Br)cc(Br)c2c1C(=Cc1cccn1C)C(=O)N2")
14.0
>>> numeric_result("Cc1cccc(C=C2C(=O)Nc3ccc(Br)c(C)c32)c1")
49.0
>>> numeric_result("O=C1Nc2ccc(I)cc2C1=Cc1ccc(Cl)cc1Cl")
73.3
>>> numeric_result("O=C1Nc2ccc(S(=O)(=O)Nc3ccc(C(F)(F)F)cc3)cc2C1=Cc1cc(Cl)ccc1O")
88.9

Simply: "CNS(=O)(=O)c1ccc2c(c1)C(=Cc1ccc(Cl)cc1Cl)C(=O)N2" , Met receptor (EGFR/Met chimeric cells, EMR) (Homo sapiens), Met Kinase % Inhibition (P.130) = 35.0

Met receptor (EGFR/Met chimeric cells, EMR) (Homo sapiens) assay, compound "O=C1Nc2ccc(I)cc2C1=Cc1ccccc1C(F)(F)F" , recorded Met Kinase % Inhibition (P.130) = 65.5

I looked up "O=C1Nc2ccc(I)cc2C1=Cc1cccc(Cl)c1" and its Met Kinase % Inhibition (P.130) for Met receptor (EGFR/Met chimeric cells, EMR) (Homo sapiens) was 60.6

For "Cc1c(Br)cc(Br)c2c1C(=Cc1ccc(F)cc1F)C(=O)N2" on Met receptor (EGFR/Met chimeric cells, EMR) (Homo sapiens), measured Met Kinase % Inhibition (P.130) was 70.3

I looked up "Cc1c(Br)ccc2c1C(=Cc1ccccc1F)C(=O)N2" and its Met Kinase % Inhibition (P.130) for Met receptor (EGFR/Met chimeric cells, EMR) (Homo sapiens) was 49.2

The compound "Cc1c(Br)cc(Br)c2c1C(=Cc1ccc(F)cc1)C(=O)N2" on Met receptor (EGFR/Met chimeric cells, EMR) (Homo sapiens): Met Kinase % Inhibition (P.130) was 16.3

// assay Met receptor (EGFR/Met chimeric cells, EMR) (Homo sapiens), entry "Cc1c(Br)ccc2c1C(=Cc1cccc(Cl)c1)C(=O)N2" , Met Kinase % Inhibition (P.130) value = 45.2

Assay Met receptor (EGFR/Met chimeric cells, EMR) (Homo sapiens), sample "COc1c(O)ccc(C=C2C(=O)Nc3c(Br)cc(Br)c(C)c32)c1[N+](=O)[O-]" , Met Kinase % Inhibition (P.130) read: 76.7

====

- Tested on: FLK-1 receptor
- TEST NAME: FLK-1 Assay (cellular/catalytic ELISA, VEGF-stimulated phosphotyrosine)
- Format: cell-based
- Design: concentration or dose not given beside the values
PROPERTY NAME: Flk Kinase % Inhibition (P.110) (%)
Just the number in %, nothing appended.

>>> numeric_result("Cc1c(Br)cc(Br)c2c1C(=Cc1ccc(N(C)C)cc1)C(=O)N2")
11.6
>>> numeric_result("O=C1Nc2c(Br)cc(Br)cc2C1=Cc1c(F)cccc1F")
"−19.6"
>>> numeric_result("COc1c(Cl)cc(C=C2C(=O)Nc3c(Br)cc(Br)c(C)c32)cc1C(C)(C)C")
5.4
>>> numeric_result("Cc1c(Br)cc(Br)c2c1C(=Cc1cc(Br)cc(Br)c1O)C(=O)N2")
1.4

Kindly review the next compound as well.
Short answer on FLK-1 receptor for "O=C1Nc2ccc(I)cc2C1=Cc1ccc(F)c(F)c1" , Flk Kinase % Inhibition (P.110): −14.3

====

The entries below are paired with their reported Flk Kinase % Inhibition (P.110).
- System: FLK-1 receptor
- TEST NAME: FLK-1 Assay (cellular/catalytic ELISA, VEGF-stimulated phosphotyrosine)
- Type: cell-based
- Parameters: concentration or dose not given beside the values
- PARTICULARS: protocol P.110
Just the number please, in %, no unit attached.

Guide cases for Flk Kinase % Inhibition (P.110), answers given:
>>> numeric_result("CN(C)CCCOc1ccc(C=C2C(=O)Nc3c(Br)cc(Br)cc32)cc1 [10739/A09]")
"−9.1"
>>> numeric_result("CNS(=O)(=O)c1ccc2c(c1)C(=Cc1ccc(OCc3ccccc3)cc1)C(=O)N2 [10739/D04]")
11.8
>>> numeric_result("O=C1Nc2ccc(S(=O)(=O)Nc3ccc(C(F)(F)F)cc3)cc2C1=Cc1ccoc1 [10739/E10]")
11.2
>>> numeric_result("O=C1Nc2c(Br)cc(Br)cc2C1=Cc1ccc2ccccc2n1 [10740/A06]")
"−8.7"
>>> numeric_result("Cc1c(Br)cc(Br)c2c1C(=Cc1ccc(CO)o1)C(=O)N2 [10739/H11]")
"−7.6"
>>> numeric_result("Cc1cccc(C=C2C(=O)Nc3c(Br)cc(Br)c(C)c32)c1 [10736/H04]")
14.0

The compound listed as CCCCOc1ccc(C=C2C(=O)Nc3c(Br)cc(Br)c(C)c32)cc1 [10740/H11] has a reported Flk Kinase % Inhibition (P.110) of 7.4

Value of Flk Kinase % Inhibition (P.110) reported for the compound Cn1cc(C=C2C(=O)Nc3ccc(CCCl)cc32)c2ccccc21 [10740/G07] is 0.4

====

- System: FLK-1 receptor
- TEST NAME: FLK-1 Assay (cellular/catalytic ELISA, VEGF-stimulated phosphotyrosine)
- Assay type: cell-based
- Set-up: concentration or dose not given beside the values
- Protocol: The cellular/catalytic assays described herein are performed in an ELISA format. […] Non-substrate components of the cell lysate are washed away and the amount of phosphorylation on the substrate is detected with an antibody specifically recognizing phosphotyrosine compared with control cells that were not contacted with a test compound. […]
Below: a set of entries, each annotated with reported Flk Kinase % Inhibition (P.110).
Report the figure in % without appending any unit label.

Sample answers from the record:
>>> numeric_result("O=C1Nc2ccc(CCCl)cc2C1=Cc1ccc(Br)s1")
8.7
>>> numeric_result("Cc1c(Br)ccc2c1C(=Cc1ccc(F)c(F)c1)C(=O)N2")
0.9
>>> numeric_result("CNS(=O)(=O)c1ccc2c(c1)C(=Cc1cccc(F)c1)C(=O)N2")
7.0
>>> numeric_result("Cc1c(Br)ccc2c1C(=Cc1ccc(O)c(Br)c1)C(=O)N2")
"−13.3"
>>> numeric_result("Cc1ccc(C=C2C(=O)Nc3c(Br)cc(Br)c(C)c32)o1")
"−5.1"
>>> numeric_result("Cc1cccc(C=C2C(=O)Nc3ccc(S(=O)(=O)Nc4ccc(C(F)(F)F)cc4)cc32)c1")
22.6
>>> numeric_result("CNS(=O)(=O)c1ccc2c(c1)C(=Cc1ccc(O)c(Br)c1)C(=O)N2")
"−11.6"
>>> numeric_result("CCOc1cccc(C=C2C(=O)Nc3ccc(CCCl)cc32)c1O")
1.5

Pending molecule:
Value of measured Flk Kinase % Inhibition (P.110) for the entry "CCc1ccc(C=C2C(=O)Nc3ccc(S(=O)(=O)N4CCOCC4)cc32)cc1" : 24.0
